# Tested on: Staphylococcus aureus
# assay_method_text: Antibacterial activity against […] Staphylococcus aureus SA1199B after 18 hrs
# Format: functional
Rule: MIC below 2 µg/mL gives fulfilled. Equal to or above 2 µg/mL gives not fulfilled.

Problem: I'd appreciate it if you could check whether "CCCCCc1cc(OC(C)=O)c(C/C=C(\C)CCC=C(C)C)c(OC(C)=O)c1" has MIC smaller than 2 µg/mL.
Solution: not fulfilled

Problem: I'd appreciate it if you could check whether "Cc1onc(-c2ccccc2)c1C(=O)N[C@@H]1C(=O)N2[C@@H]1SC(C)(C)[C@@H]2C(=O)O" has MIC smaller than 2 µg/mL.
Solution: fulfilled

Problem: I'd appreciate it if you could check whether "CC[C@H]1OC(=O)[C@H](C)[C@@H](O[C@H]2C[C@@](C)(OC)[C@@H](O)[C@H](C)O2)[C@H](C)[C@@H](O[C@@H]2O[C@H](C)C[C@H](N(C)C)[C@H]2O)[C@](C)(O)C[C@@H](C)C(=O)[C@H](C)[C@@H](O)[C@]1(C)O" has MIC smaller than 2 µg/mL.
Solution: fulfilled

Problem: I'd appreciate it if you could check whether "CCn1cc(C(=O)O)c(=O)c2cc(F)c(N3CCNCC3)cc21" has MIC smaller than 2 µg/mL.
Solution: not fulfilled

Problem: I'd appreciate it if you could check whether "Oc1cccc(O)c1" has MIC smaller than 2 µg/mL.
Solution: not fulfilled

Problem: I'd appreciate it if you could check whether "C=C(C)[C@@H]1CCC(C)=C[C@H]1c1c(OC(C)=O)cc(CCCCC)cc1OC(C)=O" has MIC smaller than 2 µg/mL.
Solution: not fulfilled

Problem: I'd appreciate it if you could check whether "C=C(C)[C@@H]1CCC(C)=C[C@H]1c1c(O)cc(O)cc1CCCCC" has MIC smaller than 2 µg/mL.
Solution: fulfilled

Problem: I'd appreciate it if you could check whether "CCCCCc1cc(O)c(C/C=C(\C)CCC=C(C)C)c(O)c1C(=O)OCCc1ccccc1" has MIC smaller than 2 µg/mL.
Solution: not fulfilled

Problem: I'd appreciate it if you could check whether "CN(C)[C@@H]1C(O)=C(C(N)=O)C(=O)[C@@]2(O)C(O)=C3C(=O)c4c(O)cccc4[C@@](C)(O)[C@H]3C[C@@H]12" has MIC smaller than 2 µg/mL.
Solution: fulfilled

Problem: I'd appreciate it if you could check whether "C=C(C)[C@@H]1CCC(C)=C[C@H]1c1c(OC)cc(CCCCC)cc1OC" has MIC smaller than 2 µg/mL.
Solution: not fulfilled

Problem: I'd appreciate it if you could check whether "CCCCCc1cc(O)c2c(c1)OC(C)(C)c1ccc(C)cc1-2" has MIC smaller than 2 µg/mL.
Solution: fulfilled

Problem: I'd appreciate it if you could check whether "CCCCCc1cc(O)c(C/C=C(\C)CCC=C(C)C)c(O)c1C(=O)OC" has MIC smaller than 2 µg/mL.
Solution: not fulfilled

Problem: I'd appreciate it if you could check whether "CCCCCc1cc(OC)c(C/C=C(\C)CCC=C(C)C)c(OC)c1" has MIC smaller than 2 µg/mL.
Solution: not fulfilled

Problem: I'd appreciate it if you could check whether "CCCCCc1cc(O)cc(O)c1" has MIC smaller than 2 µg/mL.
Solution: not fulfilled

Problem: I'd appreciate it if you could check whether "C=C(C)[C@@H]1CCC(C)=C[C@H]1c1c(O)cc(CCCCC)cc1OC" has MIC smaller than 2 µg/mL.
Solution: not fulfilled

* * *

# System: Staphylococcus aureus
# assay_method_text: Antibacterial activity against epidemic methicillin-resistant Staphylococcus aureus 16 after 18 hrs
# Format: functional
Documented MIC across a set of compounds
Record the value in µg/mL, omitting the unit from your answer.

Example cases with answers are listed next.
MIC in this record for "C=C(C)[C@@H]1CCC(C)=C[C@H]1c1c(O)cc(O)cc1CCCCC" : 1

MIC in this record for "CCCCCc1cc(O)c2c(c1)OC(C)(C)[C@@H]1CCC(C)=C[C@@H]21" : 0.5

MIC in this record for CCCCCc1cc(O)c2c(c1)OC(C)(CCC=C(C)C)C=C2 (stereo not given) : 2

MIC in this record for "CCCCCc1cc(O)c(C/C=C(\C)CCC=C(C)C)c(O)c1" : 1

Now for a further compound.
MIC in this record for "C=C(C)[C@@H]1CCC(C)=C[C@H]1c1c(O)cc(CCCCC)cc1O" : 1

* * *

# Tested on: Staphylococcus aureus
# assay_method_text: Antibacterial activity against tetracycline-resistant Staphylococcus aureus XU212 after 18 hrs
# Assay type: functional
# condition_set: XU212, 18 h
property_name: MIC (µg/mL)
Record the value in µg/mL, omitting the unit from your answer.

Example cases with answers are listed next.
MIC in this record for CCCCCc1cc(O)c2c(c1)OC(C)(C)[C@@H]1CCC(C)=C[C@@H]21 [DRONABINOL] : 1

MIC in this record for CCCCCc1cc2c(c(O)c1C(=O)O)[C@@H]1C=C(C)CC[C@H]1C(C)(C)O2 [DELTA9-TETRAHYDROCANNABINOLIC ACID A] : 8

MIC in this record for CCCCCc1cc(O)c(C/C=C(\C)CCC(O)C(C)(C)O)c(O)c1 (stereo not drawn) [CARMAGEROL] : 16

MIC in this record for CCCCCc1cc(O)c(C/C=C(\C)CCC=C(C)C)c(O)c1C(=O)O [CANNABIGEROLIC ACID] : 4

Now for a further molecule.
MIC in this record for CCn1cc(C(=O)O)c(=O)c2cc(F)c(N3CCNCC3)cc21 [NORFLOXACIN] : 4

* * *

# Test system: Staphylococcus aureus
# assay_method_text: Antibacterial activity against macrolide-resistant Staphylococcus aureus RN4220 after 18 hrs
# Format: functional
# condition_set: RN4220, 18 h
property_name: MIC (µg/mL)
Record the value in µg/mL, omitting the unit from your answer.

The value of MIC recorded for CCCCCc1cc(O)c(C/C=C(\C)CCC=C(C)C)c(O)c1C(=O)O [CANNABIGEROLIC ACID] when tested on Staphylococcus aureus reads 2

Now for a further molecule.
The value of MIC recorded for CN(C)[C@@H]1C(O)=C(C(N)=O)C(=O)[C@@]2(O)C(O)=C3C(=O)c4c(O)cccc4[C@@](C)(O)[C@H]3C[C@@H]12 [TETRACYCLINE] when tested on Staphylococcus aureus reads 0.25

* * *

# Test system: Staphylococcus aureus
# assay_method_text: Antibacterial activity against tetracycline-resistant Staphylococcus aureus XU212 after 18 hrs
# Type: functional
# condition_set: XU212, 18 h
property_name: MIC (mg/L)
Record the value in mg/L, omitting the unit from your answer.

Example cases with answers are listed next.
The value of MIC recorded for CN(C)[C@@H]1C(O)=C(C(N)=O)C(=O)[C@@]2(O)C(O)=C3C(=O)c4c(O)cccc4[C@@](C)(O)[C@H]3C[C@@H]12 [TETRACYCLINE] when tested on Staphylococcus aureus reads 128

The value of MIC recorded for C=C(C)[C@@H]1CCC(C)=C[C@H]1c1c(O)cc(CCCCC)c(C(=O)O)c1O [CANNABIDIOLIC ACID] when tested on Staphylococcus aureus reads 2

The value of MIC recorded for "CCCCCc1cc(O)cc(O)c1C/C=C(\C)CCC=C(C)C" when tested on Staphylococcus aureus reads 0.5

Continuing:
The value of MIC recorded for Cc1onc(-c2ccccc2)c1C(=O)N[C@@H]1C(=O)N2[C@@H]1SC(C)(C)[C@@H]2C(=O)O [OXACILLIN] when tested on Staphylococcus aureus reads 128

* * *

# System: Staphylococcus aureus
# assay_method_text: Antibacterial activity against macrolide-resistant Staphylococcus aureus RN4220 after 18 hrs
# Assay type: functional
# condition_set: RN4220, 18 h
Documented MIC across a set of compounds
Record the value in µg/mL, omitting the unit from your answer.

Example cases with answers are listed next.
MIC in this record for CCCCCc1cc(O)c2c(c1)OC(C)(CCC=C(C)C)C=C2 (stereo not drawn) [CANNABICHROMENE] : 2

MIC in this record for CC[C@H]1OC(=O)[C@H](C)[C@@H](O[C@H]2C[C@@](C)(OC)[C@@H](O)[C@H](C)O2)[C@H](C)[C@@H](O[C@@H]2O[C@H](C)C[C@H](N(C)C)[C@H]2O)[C@](C)(O)C[C@@H](C)C(=O)[C@H](C)[C@@H](O)[C@]1(C)O [ERYTHROMYCIN] : 64

Continuing:
MIC in this record for CCn1cc(C(=O)O)c(=O)c2cc(F)c(N3CCNCC3)cc21 [NORFLOXACIN] : 1

MIC in this record for CCCCCc1cc(O)c2c(c1)OC(C)(C)[C@@H]1CCC(C)=C[C@@H]21 [DRONABINOL] : 1

MIC in this record for CCCCCc1cc(O)cc(O)c1 [WHILE OLIVETOL] : 64

MIC in this record for "CCCCCc1cc(O)cc(O)c1C/C=C(\C)CCC=C(C)C" : 1

MIC in this record for Cc1onc(-c2ccccc2)c1C(=O)N[C@@H]1C(=O)N2[C@@H]1SC(C)(C)[C@@H]2C(=O)O [OXACILLIN] : 0.25

MIC in this record for "C=C(C)[C@@H]1CCC(C)=C[C@H]1c1c(O)cc(O)cc1CCCCC" : 1

MIC in this record for C=C(C)[C@@H]1CCC(C)=C[C@H]1c1c(O)cc(CCCCC)c(C(=O)O)c1O [CANNABIDIOLIC ACID] : 2

MIC in this record for C=C(C)[C@@H]1CCC(C)=C[C@H]1c1c(O)cc(CCCCC)cc1O [CANNABIDIOL] : 1

MIC in this record for CCCCCc1cc(O)c(C/C=C(\C)CCC=C(C)C)c(O)c1 [CANNABIGEROL] : 1

MIC in this record for CCCCCc1cc(O)c(C/C=C(\C)CCC(O)C(C)(C)O)c(O)c1 (stereo not drawn) [CARMAGEROL] : 32

MIC in this record for CCCCCc1cc(O)c2c(c1)OC(C)(C)c1ccc(C)cc1-2 [CANNABINOL] : 1
